Tested on: Yap1 mRNA
ASSAY_EXPLANATION: Dose-dependent inhibition of human Yap1 in A-431 cells (Example 7, 10,000 cells per well, RTS36584)
Format: cell-based
CONDITION_LABEL: Table 56, A-431 cells 10,000 cells per well, free uptake
Description: Modified oligonucleotides described in the studies above were tested at various doses in A-431 cells. […] After approximately 48 hours, Yap1 mRNA levels were measured as previously described using the Human Yap1 primer-probe set RTS36584. Yap1 mRNA levels were normalized to total RNA content, as measured by RIBOGREEN®. […] IC50s were calculated using a linear regression on a log/linear plot of the data in excel.
pIC50: −log10 of the molar value. Strand notation (5' to 3'): a small letter for the sugar, then the base; units joined by * are phosphorothioate-linked, units joined directly phosphodiester-linked; [ ] holds rarer units or linkages, { } end groups; capitals alone tell only the bases. k = constrained ethyl (cEt); [5mC] = 5-methylcytosine; d = 2'-deoxy (DNA)
So basically: pIC50 at 7 or higher? That is Fulfilled. Lower than 7? That is Not fulfilled.

INSERT INTO measurements (substance, group) VALUES
  ('958736 (kG*kT*kG*dA*dT*dA*dT*dG*dG*dA*dT*dT*d[5mC]*kT*kG*kT; antisense) [compound 958736]', 'Fulfilled'),
  ('958356 (antisense kT*kT*kG*dA*dA*dG*dA*dA*dG*dG*dA*dG*dT*k[5mC]*kG*kG) [compound 958356]', 'Not fulfilled'),
  ('958370 (antisense k[5mC]*kT*kT*dT*dA*dT*d[5mC]*dT*dA*dG*d[5mC]*dT*dT*kG*kG*kT) [compound 958370]', 'Not fulfilled'),
  ('958375 (antisense kA*kA*kA*dG*d[5mC]*d[5mC]*dT*dT*dA*dG*dA*dG*dT*k[5mC]*kA*kA) [compound 958375]', 'Fulfilled'),
  ('958476 (kT*kT*k[5mC]*d[5mC]*dG*dG*dT*dG*d[5mC]*dA*dT*dG*dT*kG*kT*k[5mC]; antisense) [compound 958476]', 'Fulfilled');

====

Test system: Yap1 mRNA
ASSAY_EXPLANATION: Antisense inhibition of human Yap1 in SNU-449 cells by modified oligonucleotides, single dose (Example 5, RTS36584)
Type: cell-based
CONDITION_LABEL: Table 45; Yap1 mRNA as percent of untreated control, SNU-449 cells, single dose
Strand notation (5' to 3'): a small letter for the sugar, then the base; units joined by * are phosphorothioate-linked, units joined directly phosphodiester-linked; [ ] holds rarer units or linkages, { } end groups; capitals alone tell only the bases. k = constrained ethyl (cEt); [5mC] = 5-methylcytosine; d = 2'-deoxy (DNA)
READOUT_TYPE: YAP1 (% UTC)

INSERT INTO assay_data (substance, measured_on, readout_type, unit_tag, observed_value) VALUES
  ('1198975 (kT*kT*dA*dG*dA*d[5mC]*dT*dA*dA*dG*dT*kA*dA*kG*dG*kT; antisense) [Compound 1198975]', 'Yap1 mRNA', 'YAP1 (% UTC)', '% UTC', 52),
  ('1198922 (kG*kG*dA*dA*dG*dA*dT*d[5mC]*dT*dG*dA*kA*dA*k[5mC]*dT*k[5mC]; antisense) [Compound 1198922]', 'Yap1 mRNA', 'YAP1 (% UTC)', '% UTC', 59),
  ('1198924 (kT*kT*dT*dG*dG*dA*dA*dG*dA*dT*d[5mC]*kT*dG*kA*dA*kA; antisense) [Compound 1198924]', 'Yap1 mRNA', 'YAP1 (% UTC)', '% UTC', 75),
  ('1198931 (kA*kG*dG*dA*dT*dG*d[5mC]*dA*dT*dG*dG*kT*dT*kT*dT*kT; antisense) [Compound 1198931]', 'Yap1 mRNA', 'YAP1 (% UTC)', '% UTC', 47),
  ('1198929 (kA*kG*dT*dG*d[5mC]*dT*dT*dT*dG*dG*dA*kA*dG*kA*dT*k[5mC]) [Compound 1198929]', 'Yap1 mRNA', 'YAP1 (% UTC)', '% UTC', 43),
  ('1095509 (antisense kT*kG*dA*dG*dG*dT*dA*dT*dA*dA*d[5mC]*kT*dG*kG*dG*k[5mC]) [Compound 1095509]', 'Yap1 mRNA', 'YAP1 (% UTC)', '% UTC', 29);

====

% UTC (Yap1 mRNA) listing for selected substances.
Tested on: Yap1 mRNA
ASSAY_EXPLANATION: Dose-dependent inhibition of human Yap1 in A-431 cells (Example 8, 10,000 cells per well, RTS4814)
Type: cell-based
CONDITION_LABEL: 31.3 nM; A-431 cells
Strand notation (5' to 3'): a small letter for the sugar, then the base; units joined by * are phosphorothioate-linked, units joined directly phosphodiester-linked; [ ] holds rarer units or linkages, { } end groups; capitals alone tell only the bases. k = constrained ethyl (cEt); [5mC] = 5-methylcytosine; d = 2'-deoxy (DNA)
READOUT_TYPE: % UTC (Yap1 mRNA) (% UTC)

INSERT INTO assay_data (substance, observed_value) VALUES
  ('1074453 (kG*kT*kG*dA*d[5mC]*dT*dA*dA*dT*dG*dA*dT*dA*kG*k[5mC]*kA; antisense) [compound 1074453]', 51),
  ('1074486 (kA*kT*kT*d[5mC]*dA*d[5mC]*dT*dA*dA*dT*dA*dT*dG*kG*kT*k[5mC]; antisense) [compound 1074486]', 55),
  ('1075766 (kG*kG*kA*dG*dA*dA*d[5mC]*dA*d[5mC]*dA*dA*dG*dA*kG*kG*k[5mC]; antisense) [compound 1075766]', 56),
  ('1076119 (kG*kT*kT*dA*dA*dA*dT*dA*dT*dG*dA*dA*dT*kT*kG*kG; antisense) [compound 1076119]', 82),
  ('1074454 (kT*kG*kT*dG*dA*d[5mC]*dT*dA*dA*dT*dG*dA*dT*kA*kG*k[5mC]; antisense) [compound 1074454]', 39),
  ('1076183 (k[5mC]*kT*kT*d[5mC]*dT*dA*dT*dA*dA*dT*dT*dA*dG*k[5mC]*k[5mC]*kA; antisense) [compound 1076183]', 65);

====

YAP1 (% UTC) listing for selected substances.
Tested on: Yap1 mRNA
ASSAY_EXPLANATION: Antisense inhibition of human Yap1 in A-431 cells by cEt gapmers, single dose (Example 3, RTS36584)
Assay type: cell-based
CONDITION_LABEL: Table 8; A-431 cells, 5,000 cells per well, free uptake, 2,000 nM, approximately 48 hours; RTS36584; normalized to RIBOGREEN; Yap1 mRNA relative to untreated control cells
Strand notation (5' to 3'): a small letter for the sugar, then the base; units joined by * are phosphorothioate-linked, units joined directly phosphodiester-linked; [ ] holds rarer units or linkages, { } end groups; capitals alone tell only the bases. k = constrained ethyl (cEt); [5mC] = 5-methylcytosine; d = 2'-deoxy (DNA)
READOUT_TYPE: YAP1 (% UTC)

INSERT INTO assay_data (substance, unit_tag, observed_value) VALUES
  ('958377 (antisense kG*k[5mC]*kT*dG*dG*dG*dA*dT*dT*dG*dA*dT*dA*kT*kT*k[5mC]) [Compound 958377]', '% UTC', 9),
  ('958356 (antisense kT*kT*kG*dA*dA*dG*dA*dA*dG*dG*dA*dG*dT*k[5mC]*kG*kG) [Compound 958356]', '% UTC', 9),
  ('958378 (antisense k[5mC]*kA*kT*d[5mC]*dA*dG*dT*dA*d[5mC]*dT*dG*dG*d[5mC]*k[5mC]*kT*kA) [Compound 958378]', '% UTC', 25);

====

System: Yap1 mRNA
ASSAY_EXPLANATION: Dose-dependent inhibition of human Yap1 in A-431 cells (Example 7, 10,000 cells per well, RTS36584)
Format: cell-based
CONDITION_LABEL: 62.5 nM, A-431 cells, 10,000 cells per well, free uptake, approximately 48 hours
Strand notation (5' to 3'): a small letter for the sugar, then the base; units joined by * are phosphorothioate-linked, units joined directly phosphodiester-linked; [ ] holds rarer units or linkages, { } end groups; capitals alone tell only the bases. k = constrained ethyl (cEt); [5mC] = 5-methylcytosine; d = 2'-deoxy (DNA)
READOUT_TYPE: Yap1 mRNA, % UTC (% UTC)

INSERT INTO measurements (substance, observed_value) VALUES
  ('958605 (k[5mC]*kT*k[5mC]*dA*dG*dA*dT*dG*dT*dA*d[5mC]*d[5mC]*dA*kA*k[5mC]*kG; antisense) [compound 958605]', 63),
  ('958734 (kA*k[5mC]*kA*d[5mC]*dA*dT*dA*dG*dA*dG*d[5mC]*dT*dA*kA*kG*kG; antisense) [compound 958734]', 65),
  ('958490 (kG*kT*kG*dA*d[5mC]*dA*dT*dG*dA*dA*dG*d[5mC]*dA*kT*k[5mC]*kT; antisense) [compound 958490]', 54),
  ('958590 (kA*kG*kG*dT*dA*dT*dA*dA*d[5mC]*dT*dG*dG*dG*k[5mC]*kA*kA) [compound 958590]', 33),
  ('958785 (kG*k[5mC]*kA*dA*dT*d[5mC]*d[5mC]*dA*d[5mC]*dA*dA*dT*dT*k[5mC]*k[5mC]*kA; antisense) [compound 958785]', 52),
  ('958545 (kA*k[5mC]*kT*d[5mC]*dT*dA*dG*dT*dT*dA*d[5mC]*dA*dT*k[5mC]*kA*kT; antisense) [compound 958545]', 50),
  ('958575 (kG*kG*k[5mC]*dT*dA*d[5mC]*dT*dG*dG*d[5mC]*dA*dA*dA*kT*kT*kA; antisense) [compound 958575]', 58),
  ('958730 (k[5mC]*kT*k[5mC]*dT*dG*dT*d[5mC]*dA*dG*dT*dT*dA*dT*k[5mC]*k[5mC]*kT; antisense) [compound 958730]', 48),
  ('958525 (kA*kT*kG*dA*dA*dG*dG*dT*dA*dA*dA*d[5mC]*d[5mC]*kA*k[5mC]*kT; antisense) [compound 958525]', 57),
  ('958735 (kA*kG*k[5mC]*dA*dA*dT*d[5mC]*dT*dT*dG*dT*dG*dG*kA*kT*k[5mC]; antisense) [compound 958735]', 69),
  ('958615 (kT*kG*kG*dT*d[5mC]*dT*dT*dG*dT*dT*d[5mC]*dT*dT*kA*kT*kG; antisense) [compound 958615]', 60),
  ('958505 (kG*kA*kT*dA*dA*dT*d[5mC]*dG*dA*dG*dA*dT*dT*kT*kA*kA; antisense) [compound 958505]', 72),
  ('958549 (kT*kG*kT*dA*dG*dA*d[5mC]*dA*d[5mC]*dA*dT*dA*d[5mC]*kT*k[5mC]*kT; antisense) [compound 958549]', 78);
